Where these numbers come from: the supplement of paper PMC9233669

For each of the sequences below, state its self-aminoacylation.
test system: biotinyl-Leu-oxazolone; test: self-aminoacylation, catalytic enhancement (BLO) (fold over background); higher = more active; k-Seq, kA / k0A0; sequences stand for … in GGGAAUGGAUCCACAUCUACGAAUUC…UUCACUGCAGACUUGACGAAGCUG
Fewer inactive variants are shown than the library holds.
When you answer, write just the number.

Given the sequence GUUCACCUUGGUCAUCGGGUG [Fam2.2 aminoacylation ribozyme variant] , what is its reported self-aminoacylation?
5.74

Given the entry AUUUCCCUGGUCAUCGAGUGU [Fam2.1 aminoacylation ribozyme variant] , report its measured self-aminoacylation.
14.6

# get_value(readout='self-aminoacylation', item= AUUACCCUGGACAUCGAGUGU [Fam2.1 aminoacylation ribozyme variant] )
3.35

Please report the recorded self-aminoacylation for AUCGCCCUGGUCAUCGAGUGA [Fam2.1 aminoacylation ribozyme variant] .
16

Looking for the measured self-aminoacylation of AUUAACCUACGUCAUCGGGUG [Fam2.2 aminoacylation ribozyme variant] , can you help?
8.3

Which self-aminoacylation value is on record for CUACUUCAAACAAUCGUUCUA [Fam1A.1 aminoacylation ribozyme variant] ?
0.559

// query self-aminoacylation value for entry UUUCACCUAGGUAAUCGGGUG [Fam2.2 aminoacylation ribozyme variant]
2.27

Looking for the measured self-aminoacylation of AUUACCCUGGUCAUCGAGGUA [Fam2.1 aminoacylation ribozyme variant] , can you help?
5.68

Which self-aminoacylation value belongs to AACUUUGCUAAUGGUCGCAAG [Fam3.1 aminoacylation ribozyme variant] ?
2.64

Look up self-aminoacylation for this sequence: AUUCCCCUGGUCAUCGCGUGA [Fam2.1 aminoacylation ribozyme variant]
28.2

Which self-aminoacylation is reported for this sequence? AUUCACCUAGGUCAACAGGUG [Fam2.2 aminoacylation ribozyme variant]
2.8

Please look up its self-aminoacylation: CCGCACUUCAAGGAAUCGGUC [Fam1B.1 aminoacylation ribozyme variant]
1.44

Item AUUCACCUAGGUCAUAAGGUG [Fam2.2 aminoacylation ribozyme variant] has what recorded self-aminoacylation?
3.48

self-aminoacylation lookup needed for CUAAUUCAUACAAUCGGUCUG [Fam1A.1 aminoacylation ribozyme variant] , thanks.
0.594

What value of measured self-aminoacylation is listed for AUUCACCUAGGUCAGCGUGUG [Fam2.2 aminoacylation ribozyme variant] ?
2.77

Query (sequence): CUACUUCAAACAACCGGUCUU [Fam1A.1 aminoacylation ribozyme variant] ; field requested: self-aminoacylation
0.871

For CUUACCCUGGUCCUCGAGUGA [Fam2.1 aminoacylation ribozyme variant] , what is its reported self-aminoacylation?
4.96

Name the reported self-aminoacylation value associated with the sequence CUAAUUCAAACAAUCGGUCUA [Fam1A.1 aminoacylation ribozyme variant]
0.497

* * *

system: biotinyl-Leu-oxazolone; test: self-aminoacylation, catalytic enhancement (BLO) (fold over background); higher = more active; k-Seq, kA / k0A0; sequences stand for … in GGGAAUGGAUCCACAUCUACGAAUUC…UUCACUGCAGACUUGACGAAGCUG
Variants at the floor of the assay were thinned out.
Note to self: values exactly at 2 are True. So self-aminoacylation at or above 2 is True, below is False.

Has AUGACCGUGGUCAUCGAGUGA [Fam2.1 aminoacylation ribozyme variant] a recorded self-aminoacylation greater than or equal to 2?
True

Could you please find out whether AUUUCCAUGGUCAUCGAGUGA [Fam2.1 aminoacylation ribozyme variant] has self-aminoacylation that meets 2 or exceeds it?
True

Given AUUACGCUGGUUAUCGAGUGA [Fam2.1 aminoacylation ribozyme variant] , state whether its self-aminoacylation is at least 2.
True

Please check the record AAGUUUGCUAAUAGCCGCAAA [Fam3.1 aminoacylation ribozyme variant] and state if its self-aminoacylation is at or above 2.
False

Hello, I need to know if GUUACCCUUGUCAUCGAGUGA [Fam2.1 aminoacylation ribozyme variant] has measured self-aminoacylation not below 2. Thanks!
True

For this sequence, is measured self-aminoacylation 2 or higher? AUACACCUAUGUCAUCGGGUG [Fam2.2 aminoacylation ribozyme variant]
True

Can AUUACACCGGUCAUCGAGUGA [Fam2.1 aminoacylation ribozyme variant] be said to have self-aminoacylation at or above 2?
True

Check if self-aminoacylation >= 2 (inclusive). Item: AUUACCCUGUUCAUAGAGUGA [Fam2.1 aminoacylation ribozyme variant]
True

Entry AUUACCCUGAUCAUCGAGAGA [Fam2.1 aminoacylation ribozyme variant] : is its self-aminoacylation no less than 2?
False

# check: self-aminoacylation of AUUCACCUAGGGCAACGGGUG [Fam2.2 aminoacylation ribozyme variant] is greater than or equal to 2
True

Record AUUCAGCUAGGUCAACGGGUG [Fam2.2 aminoacylation ribozyme variant] ; criterion: self-aminoacylation no lower than 2. Met?
True

Determine whether this sequence has self-aminoacylation no lower than 2: AUUACCCAGGUUAUCGAGUGA [Fam2.1 aminoacylation ribozyme variant]
True

self-aminoacylation >= 2 for AUUACCUUGGUUAUCGAGUGA [Fam2.1 aminoacylation ribozyme variant] ?
True

State whether the measured self-aminoacylation reaches 2, counting equality as reaching it, for CUAGUUUAAACAAUCGGUCUG [Fam1A.1 aminoacylation ribozyme variant]
False

Check this sequence for self-aminoacylation at or above 2: CCACACUUCAGUCAAUCGGUC [Fam1B.1 aminoacylation ribozyme variant]
False

Evaluate CUACUUCAAACAAUCGCGCUG [Fam1A.1 aminoacylation ribozyme variant] : self-aminoacylation at minimum 2?
False

Is self-aminoacylation for AAGUUUGGUAAUAGUCGUAAG [Fam3.1 aminoacylation ribozyme variant] at or above 2?
False

Quick check, self-aminoacylation >= 2? CCGCACUUCAAGCAAUGGGUC [Fam1B.1 aminoacylation ribozyme variant]
False

* * *

tested on: biotinyl-Val-oxazolone; assay: self-aminoacylation, catalytic enhancement (BVO) (fold over background); higher = more active; k-Seq, kA / k0A0; sequences stand for … in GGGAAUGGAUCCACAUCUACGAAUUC…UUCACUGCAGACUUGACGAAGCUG
Variants at the floor of the assay were thinned out.
Consider the following sequences; for each one, report its self-aminoacylation.
Give a plain numeric answer without units written out.

Please give the measured self-aminoacylation for this sequence: AAGUUGGCUAAUAGUCGCAAC [Fam3.1 aminoacylation ribozyme variant]
1.4

Query: self-aminoacylation; subject: CUGCUUCAAACAAUCGCUCUG [Fam1A.1 aminoacylation ribozyme variant]
0.888

Using the record for AUUACCCUGGUCCUAGAGUGA [Fam2.1 aminoacylation ribozyme variant] , report its self-aminoacylation.
4.85

Which self-aminoacylation is listed for CUAUUUCAAACAAACGGUCUG [Fam1A.1 aminoacylation ribozyme variant] ?
0.971

Looking for the measured self-aminoacylation of CCACACUUCAAUCAAUCGGUG [Fam1B.1 aminoacylation ribozyme variant] , can you help?
1.98

May I ask what self-aminoacylation has been recorded for UUUACCCUGGUUAUCGAGUGA [Fam2.1 aminoacylation ribozyme variant] ?
4.19

Reported self-aminoacylation, sequence AUUACCCUGGUCAUCCAGUUA [Fam2.1 aminoacylation ribozyme variant] : ____
1.08

GET /values?readout=self-aminoacylation&item= AUUCAACUAGGUCAUCUGGUG [Fam2.2 aminoacylation ribozyme variant]
1.85

Give the measured self-aminoacylation of CCUCACCUCAAGCAAUCGGUC [Fam1B.1 aminoacylation ribozyme variant] .
1.3

* * *

tested on: biotinyl-Trp-oxazolone; assay: self-aminoacylation, catalytic enhancement (BWO) (fold over background); higher = more active; k-Seq, kA / k0A0; sequences stand for … in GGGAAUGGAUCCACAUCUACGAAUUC…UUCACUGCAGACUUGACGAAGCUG
Fewer inactive variants are shown than the library holds.
observation-type: self-aminoacylation
Reply with the value as a number alone.

For the sequence shown here, AAGUUUGCUAUUACUCGCAAG [Fam3.1 aminoacylation ribozyme variant] , give the reported self-aminoacylation.
0.738

Find the recorded self-aminoacylation belonging to AUUCACUUGGGUCAUCGGGUG [Fam2.2 aminoacylation ribozyme variant] and report it.
6.5

What value of self-aminoacylation has been recorded for this entry: AUUCACCAAGAUCAUCGGGUG [Fam2.2 aminoacylation ribozyme variant]
4.68

# input sequence: CCACACUUCAAACAUUCGGUC [Fam1B.1 aminoacylation ribozyme variant] ; wanted: its self-aminoacylation
1.32

So what does the record say about self-aminoacylation for AUCCACCUAGGUCAUCGGCUG [Fam2.2 aminoacylation ribozyme variant] ?
2.44

Please report the recorded self-aminoacylation for AUUCAUCUAGGUCAUCGGGGG [Fam2.2 aminoacylation ribozyme variant] .
2.14

Entry CCACACUUCAAGCCAUCGGUA [Fam1B.1 aminoacylation ribozyme variant] has what self-aminoacylation?
1.05

I'd like to know its self-aminoacylation. The sequence in question is AACUUUUCUAAUAGUCGCAAG [Fam3.1 aminoacylation ribozyme variant]
2.05

What self-aminoacylation value was documented for this sequence, AUUCACUUAGGUCAUCGCGUG [Fam2.2 aminoacylation ribozyme variant] ?
11.1

Please give the measured self-aminoacylation for this sequence: ACACACCUCAAGCAAUCGGUC [Fam1B.1 aminoacylation ribozyme variant]
0.883

What self-aminoacylation value was documented for this sequence, AAGUUUCCUAGUAGUCGCAAG [Fam3.1 aminoacylation ribozyme variant] ?
0.668

Recorded self-aminoacylation for AUUCACCUAGGUCAUGGGAUG [Fam2.2 aminoacylation ribozyme variant] , please?
0.315

Name the recorded self-aminoacylation for AAGUCUGCUAAUAGUCCCAAG [Fam3.1 aminoacylation ribozyme variant] .
2.43

Please give the measured self-aminoacylation for this sequence: AAGUUGGCUAAUAGUCGGAAG [Fam3.1 aminoacylation ribozyme variant]
1.15

Look at this sequence and give its reported self-aminoacylation. CCACACUCCAAGCAAUCGGGC [Fam1B.1 aminoacylation ribozyme variant]
2.55

Look at this sequence and give its reported self-aminoacylation. GUAAUUCAAACAAUCGGUCUG [Fam1A.1 aminoacylation ribozyme variant]
2.11

Fill in: self-aminoacylation of CUACUUCAAACAAGCGCUCUG [Fam1A.1 aminoacylation ribozyme variant] is ___
0.842

Bench note: what self-aminoacylation did AUUACGCUAGUCAUCGAGUGA [Fam2.1 aminoacylation ribozyme variant] show?
3.63

self-aminoacylation for CCACAGUUCAAUCAAUCGGUC [Fam1B.1 aminoacylation ribozyme variant] ?
2.08

Can you share its self-aminoacylation? I mean this sequence: CUACUUCUAACCAUCGGUCUG [Fam1A.1 aminoacylation ribozyme variant]
0.45

Recorded self-aminoacylation of UUUAACCUGGUCAUCGAGUGA [Fam2.1 aminoacylation ribozyme variant] , please.
8.93

Find the recorded self-aminoacylation belonging to AUUCACCUACCUCAUCGGGUG [Fam2.2 aminoacylation ribozyme variant] and report it.
2.79

Data request, read-out self-aminoacylation, for CUGCUUCAAACAAUCGGUUUG [Fam1A.1 aminoacylation ribozyme variant]
84.2

Entry UCACACUUCAAGCACUCGGUC [Fam1B.1 aminoacylation ribozyme variant] has what self-aminoacylation?
0.771

Dear colleague, I am looking for the recorded self-aminoacylation of the following sequence: CUAAUUCAAAGAAUCGGUCUG [Fam1A.1 aminoacylation ribozyme variant]
0.78

Name the recorded self-aminoacylation for CUACUUCAAACACCCGGUCUG [Fam1A.1 aminoacylation ribozyme variant] .
2.08

What does the record list as self-aminoacylation for AUUCACGUAGGUCAUUGGGUG [Fam2.2 aminoacylation ribozyme variant] ?
4

Fill blank: measured self-aminoacylation of the sequence CAGUUUGGUAAUAGUCGCAAG [Fam3.1 aminoacylation ribozyme variant] is ____.
1.97

Recorded self-aminoacylation for AUGUUUGCUAAUAGUCGCUAG [Fam3.1 aminoacylation ribozyme variant] , please?
1.28

Field request: self-aminoacylation | item: CUACUUCAAACAAUCGGGCUG [Fam1A.1 aminoacylation ribozyme variant]
9.43

// self-aminoacylation lookup, key: UAGUUUGCUAACAGUCGCAAG [Fam3.1 aminoacylation ribozyme variant]
3.08

Given the sequence AUUCACCUGGGUCAGCGGGUG [Fam2.2 aminoacylation ribozyme variant] , what is its reported self-aminoacylation?
4.72

Reported self-aminoacylation, sequence CCACACUUCACGCAAUUGGUC [Fam1B.1 aminoacylation ribozyme variant] : ____
0.792

Record request: self-aminoacylation value, item CUUCGUCAAACAAUCGGUCUG [Fam1A.1 aminoacylation ribozyme variant]
2.23

Request the reported self-aminoacylation associated with AUUACCUUGGUCAUCGCGUGA [Fam2.1 aminoacylation ribozyme variant]
19.5
